- experimental_protocol: qHTS for differential inhibitors of proliferation of Plasmodium falciparum line Dd2 (AID 1882); also: nearly all actives have a fitted effect of over 65% in size; also: potency is read from the fitted curve at half-maximal effect
- condition_set: Plasmodium falciparum Dd2 proliferation inhibition; series mostly up to 28.7 µM
Inconclusive results are not listed. Active and inactive are the calls of the source. Calls follow the shape of the dose curve; as a rule, active = well fitted inhibition curve with a large enough effect; inconclusive = small, poorly fitted or top-dose-only effect; inactive = flat fitted curve, though single readings scatter.
observed_property: Potency

compound | observed_value
CN1C[C@H](CNC(=O)OCc2ccccc2)C[C@@H]2c3cccc4c3c(cn4C)C[C@H]21 | 10 µM (active)
N#CC(C#N)=Cc1ccc(O)c(O)c1 | inactive
COc1ccc(Cc2nccc3cc(OC)c(OC)cc23)cc1OC | inactive
Cc1ncc(CNC(=O)N(CCCl)N=O)c(N)n1 | inactive
Nc1ccncc1 | inactive
CC[N+](CC)(CC)CC | inactive
O=c1[nH]c2ccccc2n1CCCN1CCC(n2c(=O)[nH]c3cc(Cl)ccc32)CC1 | 8.91 µM (active)
CC(CCc1ccccc1)NC(C)C(O)c1ccc(O)cc1 (stereo not drawn) | 5.01 µM (active)
NCC(O)c1ccc(O)cc1 (stereo not drawn) | inactive
CCCC(C)(COC(N)=O)COC(=O)NC(C)C (stereo not drawn) | inactive
NCC(CC(=O)O)c1ccc(Cl)cc1 (stereo not drawn) | inactive
Cc1ccc(S(=O)(=O)N[C@@H](CCCCN)C(=O)CCl)cc1 | inactive
NN=C(N)N | inactive

====

// efficacy lookup, one value per entry
- condition_set: Ebola virus entry assay, green fluorescence channel
Entries with a potency or affinity are not part of this list.

compound | quantity_unit | efficacy
CCCCC1=NC2(CCCC2)C(=O)N1Cc1ccc(-c2ccccc2-c2nn[nH]n2)cc1 | % | 32.1
CCC1(c2ccccc2)C(=O)NCNC1=O | % | -13.6
Cc1ccc(S(=O)(=O)NC(=O)NN2CCCCCC2)cc1 | % | -42.6
CCC[C@H](N[C@@H](C)C(=O)N1[C@H](C(=O)O)C[C@@H]2CCCC[C@@H]21)C(=O)OCC | % | -25
CCC(COC(=O)c1cc(OC)c(OC)c(OC)c1)(c1ccccc1)N(C)C (stereo unspecified) | % | 72.4
CN1CCN(CCCN2c3ccccc3Sc3ccc(C(F)(F)F)cc32)CC1 | % | -186

====

- experimental_protocol: Primary qHTS for small molecule stabilizers of the endoplasmic reticulum resident proteome: Secreted ER Calcium Modulated Protein (SERCaMP) assay (AID 1508630); also: % is scaled to controls: 0 for no effect and ±100 for the full control effect
- condition_set: SH-SY5Y GLuc-SERCaMP (Gaussia luciferase released on ER calcium loss) secretion, thapsigargin, luminescence; series mostly up to 38.4 µM
Inconclusive results are not listed. Activity calls are given as the source filed them. Calls come from the whole dose curve; as a rule, active = well fitted inhibition curve with a large enough effect; inconclusive = small, poorly fitted or top-dose-only effect; inactive = no such curve, though single readings can be large or run the other way.
observed_property: outcome

compound | observed_value
CC[C@@H](CO)NC(=O)[C@@H]1C=C2c3cccc4c3c(cn4C)C[C@H]2N(C)C1 | inactive
Clc1ccc(CCC(Cn2ccnc2)Sc2c(Cl)cccc2Cl)cc1 (configuration not stated) | inactive
C=CCN1CC[C@]23c4c5ccc(O)c4O[C@H]2C(=O)CC[C@@]3(O)[C@H]1C5 | inactive
CC(C)(C)CC(C)(C)c1ccc(O)cc1 | inactive
O=[N+]([O-])c1cc([As](=O)(O)O)ccc1O | inactive
CNC(=O)N1N=C(c2ccc(N)cc2)c2cc3c(cc2CC1C)OCO3 (configuration not stated) | inactive
NCCc1cc(O)c(O)cc1O | inactive
COc1ccc(Cc2nccc3cc(OC)c(OC)cc23)cc1OC | inactive
Cc1sc2c(c1C)C(c1ccc(Cl)cc1)=N[C@@H](CC(=O)OC(C)(C)C)c1nnc(C)n1-2 | inactive
Oc1ccc(Cl)cc1Cc1ccccc1 | inactive
Cc1cccc(C)c1NC(=O)CN1CCCC1=O | inactive
Oc1ccccc1-c1ccccc1 | inactive

====

- condition_set: Ebola virus entry assay, green fluorescence channel
Results with a measured potency or affinity are listed apart.
Decision: efficacy beneath -10% gives 1; efficacy meeting or exceeding -10% gives 0.

compound | group_label
CC(=O)[C@H]1CC[C@H]2[C@@H]3CC[C@H]4C[C@](C)(O)CC[C@]4(C)[C@H]3CC[C@]12C | 0
CCOP(=S)(OCC)Oc1cc(C)nc(C(C)C)n1 | 0
CC[C@@H](CO)NCCN[C@@H](CC)CO | 1
O=C(O)c1cn(C2CC2)c2cc(N3CCNCC3)c(F)cc2c1=O | 0
CC(C)NCC(O)c1ccccc1Cl (configuration not stated) | 0
CC[C@@]1(c2ccccc2)NC(=O)N(C)C1=O | 1
Oc1cc(Cl)ccc1Oc1ccc(Cl)cc1Cl | 1
O=C1CC[C@@]2(O)[C@H]3Cc4ccc(O)c5c4[C@@]2(CCN3CC2CC2)[C@H]1O5 | 1
O=C(O)C1(C(=O)O)CCC1.[NH2-].[NH2-].[Pt+2] | 1
C[C@]12CCC(=O)C(O)=C1CC[C@@H]1[C@@H]2CC[C@]2(C)C(=O)CC[C@@H]12 | 1
C#C[C@]1(O)CC[C@H]2[C@@H]3CCC4=Cc5oncc5C[C@]4(C)[C@H]3CC[C@@]21C | 0
CC(N)C12CC3CC(CC(C3)C1)C2 (configuration not stated) | 0
C[C@]12C/C(=C/O)C(=O)C[C@@H]1CC[C@@H]1[C@@H]2CC[C@@]2(C)[C@H]1CC[C@]2(C)O | 0
OCCOCCN1CCN(C(c2ccccc2)c2ccc(Cl)cc2)CC1 (configuration not stated) | 0
O=C(NC(O)C(Cl)(Cl)Cl)NC(O)C(Cl)(Cl)Cl (configuration not stated) | 0
CCCCCCCCCCCCCC[N+](C)(C)Cc1ccccc1 | 1
CCCN1CCC[C@@H]2Cc3nc(N)ncc3C[C@H]21 | 0
COC(=O)Nc1nc2ccc(C(=O)c3cccs3)cc2[nH]1 | 0
CN(Cc1cnc2nc(N)nc(N)c2n1)c1ccc(C(=O)N[C@@H](CCC(=O)O)C(=O)O)cc1 | 0
CNC(=O)c1cc(Oc2ccc(NC(=O)Nc3ccc(Cl)c(C(F)(F)F)c3)cc2)ccn1 | 0
O=C(O)CCNC(=O)c1ccc(N=Nc2ccc(O)c(C(=O)O)c2)cc1 | 1
Nc1ncn([C@@H]2O[C@H](CO)[C@@H](O)[C@H]2O)c(=O)n1 | 1

====

- Tested on: HEK293
- experimental_protocol: Cytotoxic Profiling of Annotated Libraries Using Quantitative High-Throughput Screening (AID 1296008); also: nearly all actives have a fitted effect of over 60% in size
- condition_set: Five cell lines viability, CellTiter-Glo ATP luminescence, 48-72 h
Results filed as inconclusive are left out. The source made the active and inactive calls. The call rests on the fitted dose curve; in most records, active means well fitted inhibition curve with a large enough effect; inconclusive means small, poorly fitted or top-dose-only effect; inactive means flat fitted curve, though single readings scatter.
Classes used: True = active, False = inactive

molecule | group_label
CN(C)CCc1ccc(O)cc1 | False
CC(C)(C)CC(C)(C)c1ccc(O)cc1 | True
Cc1cccc(C)c1NC(=O)CN1CCCC1=O | False
CN1CCN(C(=O)O[C@H]2c3nccnc3C(=O)N2c2ccc(Cl)cn2)CC1 | False
C#CCN(C)[C@H](C)Cc1ccccc1 | False
Oc1cc(Cl)ccc1Oc1ccc(Cl)cc1Cl | True
CCC(=O)C(CC(C)N(C)C)(c1ccccc1)c1ccccc1 (stereo unspecified) | True
C[C@@H]1[C@@H](C(=O)C[C@H]2O[C@@H]3O[C@]4(C)CC[C@@H]5[C@H](C)CC[C@@H]([C@H]2C)[C@@]35OO4)O[C@@H]2O[C@]3(C)CC[C@H]4[C@H](C)CC[C@@H]1[C@@]24OO3 | True
NCCc1cc(O)c(O)cc1O | False
NCC1(CC(=O)O)CCCCC1 | False
CC(=O)[C@H]1CC[C@H]2[C@@H]3CC[C@H]4C[C@](C)(O)CC[C@]4(C)[C@H]3CC[C@]12C | False

====

- experimental_protocol: Quantitative High-Throughput drug screen in 47 multiple myeloma cell lines against the NCATS MIPE library collection: KMS27_JCRB cell viability assay (AID 1918970); also: nearly all actives have a fitted effect of over 30% in size; also: potency is read from the fitted curve at half-maximal effect
- condition_set: KMS27 myeloma cells, CellTiter-Glo ATP viability, 48 h; series mostly up to 45.8 µM
Inconclusive results are not listed. The source made the active and inactive calls. Calls come from the whole dose curve; as a rule, active = well fitted cell-killing curve with a large enough effect; inconclusive = small, poorly fitted or top-dose-only effect, or effect the other way; inactive = no such curve, though single readings can be large or run the other way.

compound | Potency
Cn1cc(C2=C(c3cn(C4CCN(Cc5ccccn5)CC4)c4ccccc34)C(=O)NC2=O)c2ccccc21 | 18700 nM (active)
C=C(C)[C@H]1Cc2c(ccc3c2O[C@@H]2COc4cc(OC)c(OC)cc4[C@@H]2C3=O)O1 | 296 nM (active)
C[C@@H]1[C@@H](CC(C[C@H]2O[C@@H]3O[C@]4(C)CC[C@@H]5[C@H](C)CC[C@@H]([C@H]2C)[C@@]35OO4)C[S+](=O)([O-])c2ccc(COC(=O)N(C)C)cc2)O[C@@H]2O[C@]3(C)CC[C@H]4[C@H](C)CC[C@@H]1[C@@]24OO3 (stereo partly drawn) | 187 nM (active)
N[C@@H](Cc1ccc(N(CCCl)CCCl)cc1)C(=O)O | 3720 nM (active)
COc1ccc2c(c1OC)CN1CCc3cc4c(cc3C1C2)OCO4 (stereo not drawn) | 20900 nM (active)
O=C1CC[C@@]2(O)[C@H]3Cc4ccc(O)c5c4[C@@]2(CCN3CC2CC2)[C@H]1O5 | inactive
COc1ccc(C(=O)c2c(C)n(CCN3CCOCC3)c3ccccc23)cc1 | inactive
Cc1cccc(C)c1NC(=O)CN1CCCC1=O | inactive
CN1CCN(C(=O)O[C@H]2c3nccnc3C(=O)N2c2ccc(Cl)cn2)CC1 | inactive
CC(C)CC(N(C)C)C1(c2ccc(Cl)cc2)CCC1 (stereo not drawn) | inactive
CN(C)CCN(C)CCc1ccc(Cl)c(Cl)c1 | inactive
C[C@@H]1O[C@@H](O[C@H]2C[C@@H](O)[C@]3(CO)[C@H]4[C@H](O)C[C@]5(C)[C@@H](C6=CC(=O)OC6)CC[C@]5(O)[C@@H]4CC[C@]3(O)C2)[C@H](O)[C@H](O)[C@H]1O | 18.7 nM (active)
O=C(O)C(=O)c1cn(Cc2ccccc2)c2ccc(-c3ccc(OC(F)(F)F)cc3)cc12 | inactive

Every entry's value here was drawn from PubChem BioAssay (NCATS).
